Cited source: patent US20230303690A1

Molecular target: T1, human LAG3 expressed on cells (human, UniProt P18627 23-525)
T1 sequence (looked up): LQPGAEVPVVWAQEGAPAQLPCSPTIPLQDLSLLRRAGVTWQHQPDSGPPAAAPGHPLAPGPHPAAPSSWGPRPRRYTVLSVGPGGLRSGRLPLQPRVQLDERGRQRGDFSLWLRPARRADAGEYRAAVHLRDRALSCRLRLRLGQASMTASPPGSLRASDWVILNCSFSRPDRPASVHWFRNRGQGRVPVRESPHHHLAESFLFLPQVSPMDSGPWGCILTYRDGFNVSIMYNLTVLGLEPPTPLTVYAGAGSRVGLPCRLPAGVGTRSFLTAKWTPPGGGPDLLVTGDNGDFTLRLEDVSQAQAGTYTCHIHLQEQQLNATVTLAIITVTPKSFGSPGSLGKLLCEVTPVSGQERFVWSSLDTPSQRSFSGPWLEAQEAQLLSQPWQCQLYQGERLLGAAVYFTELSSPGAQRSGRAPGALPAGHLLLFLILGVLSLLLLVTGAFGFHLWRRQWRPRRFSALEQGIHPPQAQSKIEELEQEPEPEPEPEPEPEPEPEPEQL
Experiment: cell-based or functional assay
propertyMeasured: IL-2, % of BMS, at 33.33333333 ug/mL (%)
Answer with a number only, understood to be in %.

As a guide, the following entries are already answered.
{"binder": "combination of sdAbs 25 and 18 (other) VHH 1: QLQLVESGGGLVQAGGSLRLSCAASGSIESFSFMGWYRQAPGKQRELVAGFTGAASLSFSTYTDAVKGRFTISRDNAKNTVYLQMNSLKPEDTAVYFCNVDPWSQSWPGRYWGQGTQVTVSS VHH 2: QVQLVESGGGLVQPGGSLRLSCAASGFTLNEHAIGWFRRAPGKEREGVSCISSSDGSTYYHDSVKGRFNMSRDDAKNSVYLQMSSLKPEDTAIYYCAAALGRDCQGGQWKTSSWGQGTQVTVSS", "propertyMeasured": "IL-2, % of BMS, at 33.33333333 ug/mL", "measValue": 65}
{"binder": "sdAb No. 27 (VHH, Fc of the tested form not described; also called sdAb 27; not shown: Fc part implied by anti-human Fc capture and anti-human IgG Fc detection) VHH: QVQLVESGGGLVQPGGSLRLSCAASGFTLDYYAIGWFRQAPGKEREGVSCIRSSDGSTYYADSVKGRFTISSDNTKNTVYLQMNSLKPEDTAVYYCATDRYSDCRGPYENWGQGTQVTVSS", "propertyMeasured": "IL-2, % of BMS, at 33.33333333 ug/mL", "measValue": 52.9}
{"binder": "combination of sdAbs 25 and 2015 (other) VHH 1: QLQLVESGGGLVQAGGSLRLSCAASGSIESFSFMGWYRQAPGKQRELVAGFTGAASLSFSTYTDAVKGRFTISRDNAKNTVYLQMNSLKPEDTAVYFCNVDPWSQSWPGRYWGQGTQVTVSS VHH 2: QLQLVESGGGLAQTGGSLRLSCAAAGFTFDDTATGWFRQAPGKNREGVACISSSDGRIHYIDSAKGRFTISKDNAKKTVYLQMDSLKPEDTAVYYCAAARKGSTDCQGAIWGSWGQGTQVIVSS", "propertyMeasured": "IL-2, % of BMS, at 33.33333333 ug/mL", "measValue": 50.7}
{"binder": "sdAb No. 18 (VHH, Fc of the tested form not described; also called sdAb 18; not shown: Fc part implied by anti-human Fc capture) VHH: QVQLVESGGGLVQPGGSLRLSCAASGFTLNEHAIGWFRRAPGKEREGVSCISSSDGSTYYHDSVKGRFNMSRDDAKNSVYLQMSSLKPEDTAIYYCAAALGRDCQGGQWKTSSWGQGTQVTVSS", "propertyMeasured": "IL-2, % of BMS, at 33.33333333 ug/mL", "measValue": 61.7}
{"binder": "combination of sdAbs 25 and 27 (other) VHH 1: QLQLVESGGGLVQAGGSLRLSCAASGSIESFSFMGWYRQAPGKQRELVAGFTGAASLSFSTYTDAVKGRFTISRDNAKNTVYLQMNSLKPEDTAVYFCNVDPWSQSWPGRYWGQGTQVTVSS VHH 2: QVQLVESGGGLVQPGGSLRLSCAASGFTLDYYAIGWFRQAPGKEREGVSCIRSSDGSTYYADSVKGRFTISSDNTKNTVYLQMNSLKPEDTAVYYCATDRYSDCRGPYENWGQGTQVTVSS", "propertyMeasured": "IL-2, % of BMS, at 33.33333333 ug/mL", "measValue": 79.8}

Problem: Endpoint output: IL-2, % of BMS, at 33.33333333 ug/mL of sdAb No. 25 (VHH, Fc of the tested form not described; also called sdAb 25; sdAb #25; not shown: Fc part implied by anti-human Fc capture and anti-human IgG Fc detection) VHH: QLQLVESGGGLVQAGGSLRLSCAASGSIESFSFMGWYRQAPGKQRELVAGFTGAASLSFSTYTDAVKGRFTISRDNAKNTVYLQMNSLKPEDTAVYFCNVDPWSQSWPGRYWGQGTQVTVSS . Value?
Solution: 39.8
